Test: Inhibition of Escherichia coli beta-glucuronidase
reported endpoint: Ki (µM)
Your answer is read as µM, so omit the unit and give the number.

Ask | Please report the recorded Ki for O=C(O)[C@H]1NC[C@H](O)[C@@H](O)[C@@H]1O .
Reply | 400

====

Test system: Escherichia coli
Experiment: Inhibition of Escherichia coli beta-glucuronidase at 1000 uM
reported endpoint: inhibition (%)
Write the number in % without appending the unit.

Reference set (3 entries):
[[record]]
smiles = "O=C(O)[C@@H]1NC[C@@H](O)[C@H](O)[C@@H]1O"
study_system = "Escherichia coli"
reported_endpoint = "inhibition"
units_text = "%"
recorded_measurement = 6.3

[[record]]
smiles = "O=C(O)[C@@H]1NC[C@@H](O)[C@@H](O)[C@H]1O"
study_system = "Escherichia coli"
reported_endpoint = "inhibition"
units_text = "%"
recorded_measurement = 1.3

[[record]]
smiles = "O=C(O)[C@@H]1NCC=C[C@H]1O"
study_system = "Escherichia coli"
reported_endpoint = "inhibition"
units_text = "%"
recorded_measurement = 0.9


Ask | Could you share which inhibition value was measured for O=C(O)[C@H]1NC[C@H](O)[C@@H](O)[C@@H]1O ?
Reply | 72

Ask | Same question for O=C(O)[C@@H]1NC[C@H](O)[C@H](O)[C@H]1O please.
Reply | 2.6
